As shown below, each of these molecules has a reported composite z-score value.
Molecular target: Streptavidin (Streptomyces avidinii) (UniProt P22629)
Sequence (P22629 whole entry, looked up): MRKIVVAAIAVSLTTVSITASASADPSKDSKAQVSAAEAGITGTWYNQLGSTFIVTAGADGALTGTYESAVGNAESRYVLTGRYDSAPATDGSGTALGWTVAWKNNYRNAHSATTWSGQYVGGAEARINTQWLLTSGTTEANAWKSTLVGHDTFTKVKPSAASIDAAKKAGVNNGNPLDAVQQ
Assay: compounds binding control protein streptavidin – biophysical, small-molecule microarray, 635/667 nm fluorescence, artefact control for SMM compound annotation, primary screen (AID 1147);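 further: signal reflects streptavidin binding to arrayed compounds as a control protein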
Conditions: higher = more signal
Field format: numeric only.

molecule: Cc1c(NC(=O)/C(C#N)=C/c2cccc([N+](=O)[O-])c2)c(=O)n(-c2ccccc2)n1C
experimentalSystem: Streptavidin (Streptomyces avidinii) (UniProt P22629)
composite z-score: 0.891
--
molecule: C=C(CCCC)/C(=C/C[C@H](OC(=O)c1ccncc1)c1ccc(OCCO)cc1)c1cc(C(=O)OC)ccc1OC
experimentalSystem: Streptavidin (Streptomyces avidinii) (UniProt P22629)
composite z-score: 0.0399
--
molecule: Cc1ccc(S(=O)(=O)N2C[C@@H](C(=O)O)[C@H](Sc3ccccc3)C[C@H]2c2ccccc2)cc1
experimentalSystem: Streptavidin (Streptomyces avidinii) (UniProt P22629)
composite z-score: 1.26
--
molecule: COc1ccccc1CN1C(=O)c2ccccc2[C@@]2(Cc3ccccc3N(CCCN(C)C)C2=O)[C@@H]1c1ccc(CO)cc1
experimentalSystem: Streptavidin (Streptomyces avidinii) (UniProt P22629)
composite z-score: 0.224
--
molecule: CO[C@H]1O[C@H](CO)[C@@H](OC(=O)Nc2cccc(F)c2)[C@H](OC(=O)Nc2ccccc2)[C@H]1OC(=O)Nc1ccccc1
experimentalSystem: Streptavidin (Streptomyces avidinii) (UniProt P22629)
composite z-score: -0.0985

[ask] Give a short answer stating reported composite z-score for `[N-]=[N+]=Nc1ccccc1C[C@]1(C(=O)N2CCCCC2)COC(c2ccc(OCCCO)cc2)=N1` .
[reply] 1.22

[ask] Name the recorded composite z-score of the molecule listed here: CC(c1ccccc1)C(O)C1C=CC2C(=O)N(c3ccccc3)C(=O)C2N1Nc1ccccc1 (stereo not given)
[reply] 1.67

[ask] Identify the reported composite z-score for the following entry. `COc1cc(CO)cc(I)c1O[C@H]1C=C(C(=O)NCCO)C[C@@H](N(C(=O)c2cc3ccccc3oc2=O)C2CCCCCC2)[C@@H]1O`
[reply] 0.0378

[ask] Quickly give me recorded composite z-score for C[C@H]1C2[C@H](Cc3ccccc3)NC(=O)[C@]23C(=O)NCC(=O)N2CCC[C@H]2C(=O)NC/C=C/CCC/C=C/C3[C@@H]2O[C@]12C (stereo not given in full)
[reply] -1.3

[ask] Could you please provide reported composite z-score for `[N-]=[N+]=NCc1ccccc1[C@@H]1OC(c2ccc(OCCCO)cc2)=N[C@]1(CCS(=O)(=O)c1ccccc1)C(N)=O` ? Thanks!
[reply] 0.982

[ask] Let me know recorded composite z-score for `COCCOC(=O)N1C(=O)[C@@]2(c3cc(C#CC4(O)CCCCCC4)ccc31)[C@H](c1ccccc1OCCO)N1[C@H](c3ccccc3)[C@H](c3ccccc3)OC(=O)[C@H]1[C@@H]2C(=O)N1CCc2cc(OC)c(OC)cc2C1` , thanks.
[reply] 0.738

[ask] Return reported composite z-score. Input molecule: `COc1cc(CO)cc(I)c1O[C@H]1C=C(C(=O)NCCO)C[C@@H](NC[C@@H]2CCCO2)[C@@H]1O`
[reply] -0.442

[ask] Annotate the molecule CCCCN1CC=CC23O[C@@H]4/C=C\CCCOC(=O)C4[C@H]2C(=O)N(CCCO)[C@@H]3C1=O (stereo not given in full) with its measured composite z-score.
[reply] -1.3

[ask] Given `CC#CC(=O)Oc1ccc(Br)cc1C=CC(=O)OCC` , respond with its composite z-score.
[reply] 0.119

[ask] Look up and report measured composite z-score for this entry: `Cc1ccc(S[C@]2(C(=O)O)CC(=O)N(Cc3ccccc3C(F)(F)F)[C@@H]2c2ccc(CO)cc2I)cc1`
[reply] -0.584
